target: Integrin alpha-IIb/beta-3 (Homo sapiens, UniProt P05106+P08514)
Sequence (P05106 27-788 limits assumed): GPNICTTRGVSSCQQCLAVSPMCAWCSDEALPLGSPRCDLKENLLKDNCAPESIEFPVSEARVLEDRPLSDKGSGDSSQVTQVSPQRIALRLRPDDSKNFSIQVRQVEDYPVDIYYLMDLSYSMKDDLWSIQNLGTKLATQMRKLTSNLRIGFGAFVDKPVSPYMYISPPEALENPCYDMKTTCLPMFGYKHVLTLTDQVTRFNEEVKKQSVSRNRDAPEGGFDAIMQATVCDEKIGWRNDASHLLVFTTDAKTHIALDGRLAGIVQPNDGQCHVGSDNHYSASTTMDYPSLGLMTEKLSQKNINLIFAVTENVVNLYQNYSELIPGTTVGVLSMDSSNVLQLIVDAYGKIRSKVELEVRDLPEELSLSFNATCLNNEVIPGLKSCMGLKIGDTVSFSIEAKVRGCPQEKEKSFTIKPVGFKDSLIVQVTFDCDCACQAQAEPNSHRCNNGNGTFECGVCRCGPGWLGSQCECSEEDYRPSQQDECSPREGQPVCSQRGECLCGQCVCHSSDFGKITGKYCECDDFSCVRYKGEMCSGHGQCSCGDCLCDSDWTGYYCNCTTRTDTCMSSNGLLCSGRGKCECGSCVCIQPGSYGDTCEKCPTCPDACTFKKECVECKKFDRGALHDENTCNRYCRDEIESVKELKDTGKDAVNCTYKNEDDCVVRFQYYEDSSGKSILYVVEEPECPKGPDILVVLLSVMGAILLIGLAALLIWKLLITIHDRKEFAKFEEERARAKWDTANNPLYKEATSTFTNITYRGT
Sequence (P08514 32-887 limits assumed): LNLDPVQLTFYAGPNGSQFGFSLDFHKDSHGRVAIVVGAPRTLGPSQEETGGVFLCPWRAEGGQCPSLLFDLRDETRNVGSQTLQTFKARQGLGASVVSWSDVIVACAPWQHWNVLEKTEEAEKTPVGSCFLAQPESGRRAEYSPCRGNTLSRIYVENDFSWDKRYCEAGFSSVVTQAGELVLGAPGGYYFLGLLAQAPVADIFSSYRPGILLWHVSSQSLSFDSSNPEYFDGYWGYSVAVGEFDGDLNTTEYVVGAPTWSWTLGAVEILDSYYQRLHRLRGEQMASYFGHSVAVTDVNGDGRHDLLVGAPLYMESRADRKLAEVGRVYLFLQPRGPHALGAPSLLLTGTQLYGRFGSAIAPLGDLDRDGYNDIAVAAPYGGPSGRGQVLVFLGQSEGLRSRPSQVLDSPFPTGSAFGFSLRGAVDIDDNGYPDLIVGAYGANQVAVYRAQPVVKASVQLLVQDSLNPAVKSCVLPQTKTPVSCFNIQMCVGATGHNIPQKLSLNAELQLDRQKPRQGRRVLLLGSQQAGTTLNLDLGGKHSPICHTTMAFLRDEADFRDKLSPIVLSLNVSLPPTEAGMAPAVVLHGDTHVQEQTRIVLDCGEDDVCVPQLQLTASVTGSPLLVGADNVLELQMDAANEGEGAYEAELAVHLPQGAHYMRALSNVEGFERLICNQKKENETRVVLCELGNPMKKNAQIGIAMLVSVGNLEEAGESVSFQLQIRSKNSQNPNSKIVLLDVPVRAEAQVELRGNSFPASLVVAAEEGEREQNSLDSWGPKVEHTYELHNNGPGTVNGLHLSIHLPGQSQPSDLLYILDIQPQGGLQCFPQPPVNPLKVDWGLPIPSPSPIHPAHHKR
Sequence (P08514 891-1039 limits assumed): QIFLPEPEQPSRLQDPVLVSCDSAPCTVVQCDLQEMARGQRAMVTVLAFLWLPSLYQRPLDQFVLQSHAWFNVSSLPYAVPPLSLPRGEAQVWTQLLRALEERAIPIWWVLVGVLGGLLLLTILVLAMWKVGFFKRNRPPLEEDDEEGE
assay_notes: Displacement of fibrinogen from integrin alpha2bbeta3 receptor
measured_endpoint: IC50

| compound | target | IC50 |
| --- | --- | --- |
| O=C(O)CC1OC(=O)N(CC(=O)NCC2CCC(Nc3nc4ccccc4[nH]3)CC2)c2ccccc21 (configuration not stated) | Integrin alpha-IIb/beta-3 (Homo sapiens, UniProt P05106+P08514) | > 10 µM |

With those in mind, consider the next compound.
Q: Look up IC50: O=C(O)CC1OC(=O)N(CC(=O)NCc2ccc(Nc3nc4ccccc4[nH]3)cc2)c2ccccc21 (configuration not stated)
Ans: > 10 µM

====

target: Integrin alpha-V/beta-3 (Homo sapiens, UniProt P05106+P06756)
Sequence (P06756 31-889 limits assumed, one chain of several): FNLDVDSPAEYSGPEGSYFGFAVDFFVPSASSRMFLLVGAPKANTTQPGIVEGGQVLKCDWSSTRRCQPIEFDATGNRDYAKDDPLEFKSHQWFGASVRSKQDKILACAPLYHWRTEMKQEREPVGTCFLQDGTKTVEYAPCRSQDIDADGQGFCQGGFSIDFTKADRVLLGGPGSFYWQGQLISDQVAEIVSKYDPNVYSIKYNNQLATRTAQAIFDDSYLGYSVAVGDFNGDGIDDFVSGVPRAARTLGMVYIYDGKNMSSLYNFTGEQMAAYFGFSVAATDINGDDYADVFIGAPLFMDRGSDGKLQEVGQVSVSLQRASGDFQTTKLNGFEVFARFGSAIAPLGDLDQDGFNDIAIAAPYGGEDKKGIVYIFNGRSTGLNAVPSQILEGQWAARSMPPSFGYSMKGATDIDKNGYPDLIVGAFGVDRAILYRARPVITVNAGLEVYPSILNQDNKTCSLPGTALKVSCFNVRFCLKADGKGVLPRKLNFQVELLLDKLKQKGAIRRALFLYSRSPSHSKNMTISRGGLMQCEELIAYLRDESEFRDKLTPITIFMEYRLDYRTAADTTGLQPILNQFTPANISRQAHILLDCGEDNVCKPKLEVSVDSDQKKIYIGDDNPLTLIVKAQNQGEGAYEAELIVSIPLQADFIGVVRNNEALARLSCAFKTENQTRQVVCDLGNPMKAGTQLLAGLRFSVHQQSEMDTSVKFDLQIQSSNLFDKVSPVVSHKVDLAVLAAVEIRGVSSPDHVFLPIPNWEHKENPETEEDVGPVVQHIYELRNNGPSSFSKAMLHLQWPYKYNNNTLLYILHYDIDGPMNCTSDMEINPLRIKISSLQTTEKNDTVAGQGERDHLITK
Sequence (P06756 891-1048 limits assumed, one chain of several): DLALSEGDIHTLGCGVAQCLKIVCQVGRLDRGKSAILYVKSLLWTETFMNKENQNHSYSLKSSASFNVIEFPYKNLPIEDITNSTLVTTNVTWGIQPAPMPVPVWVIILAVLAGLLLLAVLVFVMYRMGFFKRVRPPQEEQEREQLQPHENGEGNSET
assay_notes: Displacement of vitronectin from integrin alphavbeta3 receptor
measured_endpoint: IC50 (nM)

| molecule | IC50 / nM |
| --- | --- |
| O=C(O)CCC1CC(=O)N(CC(=O)NCc2ccc(Nc3nc4ccccc4[nH]3)cc2)c2ccccc21 (stereo not drawn) | 5000 |
| O=C(O)CC1CN(CC(=O)NCC2CCC(Nc3nc4ccccc4[nH]3)CC2)C(=O)c2ccccc21 (trans isomer) | 10000 |
| O=C(O)CC1NC(=O)N(CC(=O)NCc2ccc(Nc3nc4ccccc4[nH]3)cc2)c2ccccc21 (stereo not drawn) | 37 |
| O=C(O)CC1CCC(=O)N(CC(=O)NCC2CCC(Nc3nc4ccccc4[nH]3)CC2)c2ccccc21 (stereo not drawn) | 1.5 |
| O=C(O)CC1CCN(CC(=O)NCc2ccc(Nc3nc4ccccc4[nH]3)cc2)C(=O)c2ccccc21 (stereo not drawn) | 122 |

1: O=C(O)Cc1cc(=O)n(CC(=O)NCC2CCC(Nc3nc4ccccc4[nH]3)CC2)c2ccccc12 (stereo not drawn)
2: O=C(O)CC1CCC(=O)N(CC(=O)NCc2ccc(Nc3nc4ccccc4[nH]3)cc2)c2ccccc21 (stereo not drawn)
Q: Lower IC50: 1 or 2 ? Kindly state the label of the option you pick.
Ans: 2
(2: 4.4 nM, 1: 10 nM)

====

target: Integrin alpha-V/beta-3 (Homo sapiens, UniProt P05106+P06756)
assay_notes: Displacement of vitronectin from integrin alphavbeta3 receptor
measured_endpoint: IC50 (nM)

| compound | measure_unit | IC50 |
| --- | --- | --- |
| O=C(O)CC1CC(=O)N(CC(=O)NCc2ccc(Nc3nc4ccccc4[nH]3)cc2)c2ccccc21 (stereo not given) | nM | 50 |
| O=C(O)CC1OC(=O)N(CC(=O)NCc2ccc(Nc3nc4ccccc4[nH]3)cc2)c2ccccc21 (stereo not given) | nM | 4.2 |
| O=C(O)CC1CCN(CC(=O)NCC2CCC(Nc3nc4ccccc4[nH]3)CC2)C(=O)c2ccccc21 (stereo not given) | nM | 11 |
| O=C(O)Cc1cc(=O)n(CC(=O)NCc2ccc(Nc3nc4ccccc4[nH]3)cc2)c2ccccc12 | nM | 50 |
| O=C(O)CC1CN(CC(=O)NCc2ccc(Nc3nc4ccccc4[nH]3)cc2)C(=O)c2ccccc21 (stereo not given) | nM | 10000 |

I: O=C(O)CCc1cc(=O)n(CC(=O)NCC2CCC(Nc3nc4ccccc4[nH]3)CC2)c2ccccc12 (trans isomer)
II: O=C(O)CC1NC(=O)N(CC(=O)NCC2CCC(Nc3nc4ccccc4[nH]3)CC2)c2ccccc21 (trans isomer)
Q: Lower IC50: I or II ? Kindly state the label of the option you pick.
Ans: II

1: O=C(O)CCC1CC(=O)N(CC(=O)NCC2CCC(Nc3nc4ccccc4[nH]3)CC2)c2ccccc21 (stereo not given)
2: O=C(O)CCc1cc(=O)n(CC(=O)NCc2ccc(Nc3nc4ccccc4[nH]3)cc2)c2ccccc12
Q: I'd appreciate it if you could identify which of 1 and 2 has the greater IC50. Kindly state the label of the option you pick.
Ans: 2
